target-system: Cereblon/Ikaros (Homo sapiens) (UniProt Q96SW2+Q13422)
test-details: Protac activity at CRBN/IKZF1 in human MOLM-13 cells assessed as relative ratio at 25 uM incubated for 24 hrs by Western blotting analysis relative to DMSO
Assay type: cell-based
Please mark true if the recorded Ratio is equal to or greater than 0.5, and false if it falls below.

[[record]]
compound = "O=C1CCC(N2Cc3cc(NCc4ccc5cc(O)ccc5c4)ccc3C2=O)C(=O)N1 (stereo not drawn)"
label_value = "true"

[[record]]
compound = "O=C1CCC(N2Cc3cc(NCc4ccc5c6c4CC=C4C=CC=C(C=C5)C46)ccc3C2=O)C(=O)N1 (stereo not drawn)"
label_value = "false"

[[record]]
compound = "O=C1CCC(N2Cc3cc(NCc4ccc5ccccc5c4)ccc3C2=O)C(=O)N1 (stereo not drawn)"
label_value = "false"

[[record]]
compound = "O=C1CCC(N2Cc3cc(NCc4cc5ccccc5o4)ccc3C2=O)C(=O)N1 (stereo not drawn)"
label_value = "false"

[[record]]
compound = "CN(C)c1ccc2cc(CNc3ccc4c(c3)CN(C3CCC(=O)NC3=O)C4=O)ccc2c1 (stereo not drawn)"
label_value = "true"

[[record]]
compound = "O=C1CCC(N2C(=O)c3ccc(NCc4ccc5ccccc5c4)cc3C2=O)C(=O)N1 (stereo not drawn)"
label_value = "false"

[[record]]
compound = "O=C1CCC(N2Cc3cc(NCc4ccccc4)ccc3C2=O)C(=O)N1 (stereo not drawn)"
label_value = "true"

[[record]]
compound = "O=C1CCC(N2Cc3cc(NCc4ccc5oc6ccccc6c5c4)ccc3C2=O)C(=O)N1 (stereo not drawn)"
label_value = "false"

[[record]]
compound = "O=C1CCC(N2Cc3cc(NCc4cccc(Oc5ccccc5)c4)ccc3C2=O)C(=O)N1 (stereo not drawn)"
label_value = "false"

[[record]]
compound = "O=C1CCC(N2Cc3cc(NCCc4ccc5ccccc5c4)ccc3C2=O)C(=O)N1 (stereo not drawn)"
label_value = "false"

[[record]]
compound = "O=C1CCC(N2Cc3cc(NCc4ccc5c(c4)oc4ccccc45)ccc3C2=O)C(=O)N1 (stereo not drawn)"
label_value = "false"

[[record]]
compound = "COc1ccc(CNc2ccc3c(c2)CN(C2CCC(=O)NC2=O)C3=O)cc1 (stereo not drawn)"
label_value = "false"

